# Tested on: Rattus norvegicus
# test.description: Compound was tested for the vasopressor activity against phenoxybenzamine treated rats, after intravenous injection.
# Assay type: functional
Positions of bridges follow the written chain, without caps; N, C: chain ends. Non-standard residues stand in square brackets, D forms with d. Residues, ends and D or L forms follow the SMILES beside them. Mpa = O=C(O)CCS; Sar = CNCC(=O)O
Recorded Potency by entry
Quick reminder: number only, in IU mg-1, skip the unit.

CN(CC(=O)N[C@@H](CCCN=C(N)N)C(=O)NCC(N)=O)C(=O)[C@@H]1CSSC[C@H](N)C(=O)N[C@@H](Cc2ccc(O)cc2)C(=O)N[C@@H](Cc2ccccc2)C(=O)N[C@@H](CCC(N)=O)C(=O)N[C@@H](CC(N)=O)C(=O)N1    3.6
CN(CC(=O)N[C@H](CCCN=C(N)N)C(=O)NCC(N)=O)C(=O)[C@@H]1CSSCCC(=O)N[C@@H](Cc2ccc(O)cc2)C(=O)N[C@@H](Cc2ccccc2)C(=O)N[C@@H](CCC(N)=O)C(=O)N[C@@H](CC(N)=O)C(=O)N1    0.01
CN(CC(=O)N[C@H](CCCN=C(N)N)C(=O)NCC(N)=O)C(=O)[C@@H]1CSSC[C@H](N)C(=O)N[C@@H](Cc2ccc(O)cc2)C(=O)N[C@@H](Cc2ccccc2)C(=O)N[C@@H](CCC(N)=O)C(=O)N[C@@H](CC(N)=O)C(=O)N1    0.04
CC(C)[C@@H]1NC(=O)[C@H](Cc2ccccc2)NC(=O)[C@H](Cc2ccc(O)cc2)NC(=O)CCSSC[C@@H](C(=O)N(C)CC(=O)N[C@@H](CCCN=C(N)N)C(=O)NCC(N)=O)NC(=O)[C@H](CC(N)=O)NC1=O ([Mpa]YFVNC[Sar]RG-NH2; disulfide 1-6)    0.4

API: the following record is the query input.
Noted for CC(C)[C@@H]1NC(=O)[C@H](Cc2ccccc2)NC(=O)[C@H](Cc2ccc(O)cc2)NC(=O)[C@@H](N)CSSC[C@@H](C(=O)N(C)CC(=O)N[C@@H](CCCN=C(N)N)C(=O)NCC(N)=O)NC(=O)[C@H](CC(N)=O)NC1=O (H-CYFVNC[Sar]RG-NH2; disulfide 1-6) : its Potency reads 34.7
